- Tested on: 3T3-L1
- TEST_DETAILS: [1-3H]-2-deoxy-D-glucose uptake in 3T3 L1 adipocytes
- Type: functional, Mus musculus
- Set-up: reference not given here
MEASUREMENT_LABEL: Activity (Bq)
Answer format: numeric, Bq implied, no suffix.

Check out these entries, answers already filled in.
COMPOUND	SYSTEM_TESTED	NUMERIC_VALUE
O=C(OC[C@H]1O[C@H](OC(=O)c2ccc(O)c(O)c2)[C@H](OC(=O)c2ccc(O)c(O)c2)[C@@H](OC(=O)c2ccc(O)c(O)c2)[C@@H]1OC(=O)c1ccc(O)c(O)c1)c1ccc(O)c(O)c1	3T3-L1	10
O=C(OC1OC[C@H](OC(=O)c2cc(O)c(O)c(O)c2)[C@H](OC(=O)c2cc(O)c(O)c(O)c2)[C@H]1OC(=O)c1cc(O)c(O)c(O)c1)c1cc(O)c(O)c(O)c1 (single isomer, unassigned; 63)	3T3-L1	23
O=C(O[C@H]1OC[C@@H](OC(=O)c2cc(O)c(O)c(O)c2)[C@H](OC(=O)c2cc(O)c(O)c(O)c2)[C@H]1OC(=O)c1cc(O)c(O)c(O)c1)c1cc(O)c(O)c(O)c1	3T3-L1	124
CC(=O)OC[C@H]1O[C@@H](OC(C)=O)[C@H](OC(C)=O)[C@@H](OC(C)=O)[C@@H]1OC(C)=O	3T3-L1	24

Inquiry: If you can, please state the reported Activity value of O=C(OC[C@H]1O[C@@H](OC(=O)c2ccc(O)cc2)[C@H](OC(=O)c2ccc(O)cc2)[C@@H](OC(=O)c2ccc(O)cc2)[C@@H]1OC(=O)c1ccc(O)cc1)c1ccc(O)cc1 .
Reply text: 27
